Test system: SR
Assay: NCI tumour cell line growth inhibition, 48 h
Activity calls are given as the source filed them. Rule as the data show it: active = GI50 up to about 1.1 µM and inactive = higher.
Outcome field: choose from YES for active, NO for inactive

Lookup: Per the records of this test, what outcome belongs to CC(N/N=N/c1ccc(-c2nc3ccccc3[nH]2)cc1)C(=O)O (stereo unspecified) ?
Found: NO

Lookup: Per the records of this test, what outcome belongs to CSCCCS/C1=C/CCCCCCCCCC1 ?
Found: NO

Lookup: Per the records of this test, what outcome belongs to CC(C(=O)c1ccccc1)C1(O)C(=O)Nc2ccccc21 (stereo unspecified) ?
Found: NO

Lookup: Per the records of this test, what outcome belongs to CCCCCCCC/C=C\CCCCCCCC(=O)OC[C@]1(CO)CCC(=O)O1 ?
Found: NO

Lookup: Per the records of this test, what outcome belongs to OC1(c2ccc3ccccc3c2)c2c(c3ccccc3c3ccccc23)C2=NCCN21 (stereo unspecified) ?
Found: NO

Lookup: Per the records of this test, what outcome belongs to CN(Nc1cc(=O)[nH]c(=O)[nH]1)c1ccccc1 ?
Found: NO

Lookup: Per the records of this test, what outcome belongs to Cc1ccc(Nc2ccc(Nc3ccc(C)cc3S(=O)(=O)O)c3c2C(=O)c2ccccc2C3=O)c(S(=O)(=O)O)c1 ?
Found: NO

Lookup: Per the records of this test, what outcome belongs to Clc1cc(N/N=C(/c2ccccc2)c2ncccn2)ncn1 ?
Found: NO

Lookup: Per the records of this test, what outcome belongs to C=C1C(=O)O[C@@H]2C[C@@H](C)[C@@H]3C=CC(=O)[C@@]3(C)[C@@H](O)[C@H]12 ?
Found: YES

Lookup: Per the records of this test, what outcome belongs to COc1cc(-c2cccs2)sc1-c1cccs1 ?
Found: NO

Lookup: Per the records of this test, what outcome belongs to C=C1C(=O)OC2/C=C(\CO)C3OC3C3OC3(C)CC(OC(=O)/C(=C/C)COC(C)=O)C12 (stereo unspecified) ?
Found: NO
